# TARGET: Alpha-1A adrenergic receptor (Homo sapiens)
# Sequence (P35348 whole entry): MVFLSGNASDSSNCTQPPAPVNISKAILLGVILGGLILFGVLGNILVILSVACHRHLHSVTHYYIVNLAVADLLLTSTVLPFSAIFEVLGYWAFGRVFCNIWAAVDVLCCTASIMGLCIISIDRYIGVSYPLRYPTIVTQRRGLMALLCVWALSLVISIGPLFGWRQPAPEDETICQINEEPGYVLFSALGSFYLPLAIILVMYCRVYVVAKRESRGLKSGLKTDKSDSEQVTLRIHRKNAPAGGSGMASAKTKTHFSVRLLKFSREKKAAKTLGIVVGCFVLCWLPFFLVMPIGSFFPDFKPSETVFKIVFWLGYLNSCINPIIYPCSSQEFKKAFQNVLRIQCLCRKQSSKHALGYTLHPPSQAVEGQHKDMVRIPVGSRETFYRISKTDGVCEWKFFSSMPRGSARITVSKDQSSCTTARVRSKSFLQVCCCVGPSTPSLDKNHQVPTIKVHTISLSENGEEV
Consider the following molecules; for each one, report its Ki.
Answers are plain numbers, in nM.

Inquiry: API: value(readout= Ki, system= Alpha-1A adrenergic receptor (Homo sapiens), query= COc1ccccc1N1CCN(C[C@H]2CO[C@@](CN3CCCCCC3=O)(c3ccccc3)O2)CC1 (relative stereo) )
Reply text: 0.631

Lab note: each molecule below needs its Ki filled in.
1. COc1ccccc1N1CCN(C[C@H]2CO[C@@](CN3CCCCC3=O)(c3ccccc3)O2)CC1
2. COc1ccccc1N1CCN(C[C@H]2CO[C@@](CN3C(=O)CCC3=O)(c3ccccc3)O2)CC1 (relative stereo)

Reply text:
1. 0.871
2. 2.88

Lab note: each molecule below needs its Ki filled in.
1. COc1ccccc1N1CCN(C[C@H]2CO[C@](CN3CCCC3=O)(c3ccccc3)O2)CC1 (relative stereo)
2. COc1ccccc1N1CCN(C[C@@H]2CO[C@](CN3CCCC3=O)(c3ccccc3)O2)CC1 (relative stereo)

Reply text:
1.38
12.6

Lab note: each molecule below needs its Ki filled in.
1. COc1ccccc1N1CCN(C[C@H]2CO[C@@](CN3C(=O)CCCC3=O)(c3ccccc3)O2)CC1 (relative stereo)
2. COc1ccccc1N1CCN(C[C@@H]2CO[C@@](CN3C(=O)CC4(CCCC4)CC3=O)(c3ccccc3)O2)CC1 (relative stereo)

Reply text:
[6.61, 10]

Recorded values, source ChEMBL document CHEMBL1240454.
